- System: Aspergillus flavus
- measurementNotes: Antifungal activity against Aspergillus flavus at 1000 ug after 24 hrs by paper disc technique
- Assay type: functional
- experimentalContext: read-out: IZ
Reported zone of inhibition at 1000 µg/disc values for the following compounds.
Report only the number, with the unit mm understood.

OC(Cn1cncn1)(Cn1cncn1)c1ccc(F)cc1F : 42
O=[N+]([O-])c1ccc(-c2nnc3n2N=Cc2cc4ccccc4nc2N3)cc1 : 36
C1=Nn2c(nnc2-c2ccccc2)Nc2nc3ccccc3cc21 : 45

// zone of inhibition at 1000 µg/disc value for Cc1ccc2nc3c(cc2c1)C=Nn1c(nnc1-c1ccc([N+](=O)[O-])cc1)N3 : 49

Recorded zone of inhibition at 1000 µg/disc (compound Cc1ccc2nc3c(cc2c1)C=Nn1c(nnc1-c1ccccc1Cl)N3 ): 32

* * *

Quick reference: Activity of the listed items.
- Tested on: Aspergillus flavus
- measurementNotes: Antifungal activity against Aspergillus flavus at 500 ug after 24 hrs by paper disc technique relative to control
- Type: functional
Your answer should be a plain number; it is taken to be in %.

Case Cc1ccc2nc3c(cc2c1)C=Nn1c(nnc1-c1ccccc1Cl)N3 , Aspergillus flavus, Activity recorded as 70.66

Fill in: Aspergillus flavus Activity for Cc1ccc2nc3c(cc2c1)C=Nn1c(nnc1-c1ccc([N+](=O)[O-])cc1)N3 = 71.66

The compound OC(Cn1cncn1)(Cn1cncn1)c1ccc(F)cc1F [FLUCONAZOLE] on Aspergillus flavus: Activity was 58.33

Form field, Activity with Aspergillus flavus, item C1=Nn2c(nnc2-c2ccccc2)Nc2nc3ccccc3cc21 : 53.33

Here O=[N+]([O-])c1ccc(-c2nnc3n2N=Cc2cc4ccccc4nc2N3)cc1 was tested on Aspergillus flavus, and its Activity came to 60

* * *

- Test system: Aspergillus niger
- measurementNotes: Antifungal activity against Aspergillus niger at 500 ug after 24 hrs by paper disc technique relative to control
- Assay type: functional
Decide using Activity alone. Strictly below 50%: condition met. Equal to or above 50%: condition not met.

Known results for molecules:
Cc1ccc2nc3c(cc2c1)C=Nn1c(nnc1-c1ccccc1Cl)N3 : condition met
OC(Cn1cncn1)(Cn1cncn1)c1ccc(F)cc1F [FLUCONAZOLE] : condition not met
C1=Nn2c(nnc2-c2ccccc2)Nc2nc3ccccc3cc21 : condition not met
Cc1ccc2nc3c(cc2c1)C=Nn1c(nnc1-c1ccc([N+](=O)[O-])cc1)N3 : condition not met

Please indicate whether the reported Activity of O=[N+]([O-])c1ccc(-c2nnc3n2N=Cc2cc4ccccc4nc2N3)cc1 is strictly below 50%.
condition met

* * *

- System: Aspergillus niger
- measurementNotes: Antifungal activity against Aspergillus niger at 500 ug after 24 hrs by paper disc technique
- Format: functional
- experimentalContext: read-out: IZ
reportedEndpoint: zone of inhibition at 500 µg/disc (mm)
Number in mm, nothing else.

Cc1ccc2nc3c(cc2c1)C=Nn1c(nnc1-c1ccc([N+](=O)[O-])cc1)N3 : 34
O=[N+]([O-])c1ccc(-c2nnc3n2N=Cc2cc4ccccc4nc2N3)cc1 : 22
OC(Cn1cncn1)(Cn1cncn1)c1ccc(F)cc1F : 42

Form: compound = C1=Nn2c(nnc2-c2ccccc2)Nc2nc3ccccc3cc21 ; zone of inhibition at 500 µg/disc = 39

// zone of inhibition at 500 µg/disc value for Cc1ccc2nc3c(cc2c1)C=Nn1c(nnc1-c1ccccc1Cl)N3 : 24
